The origin of these recorded values is paper PMC7663645.

Biological target: MAO-B (Rattus norvegicus, UniProt P19643)
Construct: from tissue; host or cells: rat brain (membrane homogenates)
Sequence (P19643 whole entry): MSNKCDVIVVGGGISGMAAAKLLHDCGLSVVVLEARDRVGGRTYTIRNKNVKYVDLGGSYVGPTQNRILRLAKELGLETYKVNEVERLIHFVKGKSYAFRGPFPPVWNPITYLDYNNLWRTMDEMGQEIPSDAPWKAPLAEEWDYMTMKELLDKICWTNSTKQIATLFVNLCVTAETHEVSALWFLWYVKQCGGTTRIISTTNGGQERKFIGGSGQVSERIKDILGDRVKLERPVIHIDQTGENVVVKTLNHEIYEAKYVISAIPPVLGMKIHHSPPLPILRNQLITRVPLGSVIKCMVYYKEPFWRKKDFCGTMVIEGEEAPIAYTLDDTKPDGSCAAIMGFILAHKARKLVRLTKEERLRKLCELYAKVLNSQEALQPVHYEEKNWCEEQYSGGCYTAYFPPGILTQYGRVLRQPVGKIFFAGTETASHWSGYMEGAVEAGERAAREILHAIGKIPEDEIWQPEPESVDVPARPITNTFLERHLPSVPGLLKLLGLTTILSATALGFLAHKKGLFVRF
Assay: Radioligand competition binding assay with L-[^3H]Deprenyl on rat brain membrane homogenates
Details: read-out: IC50 (MAO-B binding affinity)
measured_attribute: IC50

>>> df
                         chemical_structure  measured_attribute   result
0         Fc1cccc(N2CCN(CC=Cc3ccccc3)CC2)n1                IC50  > 10 µM
1  O=C(c1ccc(F)cc1)N1CCN(C/C=C/c2ccccc2)CC1                IC50  > 10 µM
2         Fc1cc(N2CCN(CC=Cc3ccccc3)CC2)ccn1                IC50  > 10 µM
3           Fc1ncccc1N1CCN(CC=Cc2ccccc2)CC1                IC50  > 10 µM
4      Fc1cc(N2CCN(C/C=C/c3ccccc3F)CC2)ccn1                IC50  > 10 µM
5         Fc1ccc(N2CCN(CC=Cc3ccccc3)CC2)cn1                IC50  > 10 µM
